experiment_summary: Pharmacokinetic test on male SD rats
Assay type: in vivo
condition_summary: rat, po, gavage (p.o.), 10 mg/kg, plasma
readout_label: AUC(0-t) (ng·h/mL)

CCc1cc(Nc2ncc(Cl)c(Nc3ccccc3C(=O)NC)n2)c(OC)cc1N1CCN(C(=O)CN2CCN(c3ccc(NC4CCC(=O)NC4=O)cc3F)CC2)CC1 (centres unmarked) [Compound T-029]; 7900
CCc1cc(Nc2ncc(Cl)c(Nc3ccccc3C(=O)NC)n2)c(OC)cc1N1CCN(C(=O)CN2CCC(c3ccc(NC4CCC(=O)NC4=O)cc3)CC2)[C@@H](C)C1 (some centres unmarked) [Compound T-078]; 8600
CCc1cc(Nc2ncc(Cl)c(Nc3ccccc3C(=O)NC)n2)c(OC)cc1N1CCN(C(=O)CN2CCC(c3ccc(NC4CCC(=O)NC4=O)cc3)CC2)[C@H](C)C1 (some centres unmarked) [Compound T-079]; 7720

P: CCc1cc(Nc2ncc(Cl)c(Nc3ccccc3C(=O)NC)n2)c(OC)cc1N1CCN(C(=O)CN2CCC(c3ccc4c(N5CCC(=O)NC5=O)nn(C)c4c3)C(F)(F)C2)CC1 (centres unmarked) [Compound T-013]
Q: CCc1cc(Nc2ncc(Cl)c(Nc3ccccc3C(=O)NC)n2)c(OC)cc1N1CCN(C(=O)CC2(O)CCN(c3ccc(NC4CCC(=O)NC4=O)cc3F)CC2)CC1 (centres unmarked) [Compound T-037]
In: Higher AUC(0-t): P or Q ? Use the label to indicate which entry you chose.
Out: Q
(Q: 24000 ng·h/mL, P: 6690 ng·h/mL)
